Test: chemical genetic growth profiling, strain panel (AID 1159580);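 also: tested at 20 µM; growth read once vehicle control cultures reached saturation at 30 °C; 1 = growth at the plate median or of vehicle wells; lower values mean less growth of the strain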
Conditions: S. cerevisiae deletion strains, growth OD, locus YBR231C, strain swc5, stronger effect = lower value
In all, about 5,500 compounds went through this assay and about 2,000 (36%) were called active. About 18% were inconclusive and are not listed. This is one part of the list.
ENDPOINT_NAME: normalized growth
Answer with the value's number alone.

Lookup: May I ask what normalized growth has been recorded for COP(N)(=O)SC (configuration not stated) ?
Found: 1.01

Lookup: May I ask what normalized growth has been recorded for "O=C(/C=C(\O)c1ccccc1)c1ccccc1O" ?
Found: 0.65

Lookup: May I ask what normalized growth has been recorded for "OC1(c2ccc(Cl)c(C(F)(F)F)c2)CCN(CCCC(c2ccc(F)cc2)c2ccc(F)cc2)CC1" ?
Found: 0.0658

Lookup: May I ask what normalized growth has been recorded for COC(=O)C(N)CS (configuration not stated) ?
Found: 0.974

Lookup: May I ask what normalized growth has been recorded for CC1(C)S[C@@H]2[C@H](NC(=O)C(C(=O)O)c3ccccc3)C(=O)N2[C@H]1C(=O)O (some centres not stated) ?
Found: 1

Lookup: May I ask what normalized growth has been recorded for "O=C(CCCN1CCC2(CC1)C(=O)NCN2c1ccccc1)c1ccc(F)cc1" ?
Found: 1.04

Lookup: May I ask what normalized growth has been recorded for "CN(C)C(=O)C(CCN1CCC(O)(c2ccc(Cl)cc2)CC1)(c1ccccc1)c1ccccc1" ?
Found: 0.965

Lookup: May I ask what normalized growth has been recorded for "CCCc1nn(C)c2c(=O)[nH]c(-c3cc(S(=O)(=O)N4CCN(C)CC4)ccc3OCC)nc12" ?
Found: 0.988

Lookup: May I ask what normalized growth has been recorded for "COc1cc2c(cc1OC)-c1c(oc3cc(O)cc(O)c3c1=O)CO2" ?
Found: 1.02

Lookup: May I ask what normalized growth has been recorded for "NCCCN" ?
Found: 0.984

Lookup: May I ask what normalized growth has been recorded for Cc1c(OCC(F)(F)F)ccnc1CS(=O)c1nc2ccccc2[nH]1 (configuration not stated) ?
Found: 1.05

Lookup: May I ask what normalized growth has been recorded for CCCCCC(O)C1C(=O)OC(C)C(O)/C=C/C=C/C=C/C=C/C=C(\C)C(O)CC(O)CC(O)CC(O)CC(O)CC(O)CC1O (configuration not stated) ?
Found: 0.992

---

Assay: chemical genetic growth profiling, strain panel (AID 1159580);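 also: tested at 20 µM; growth read once vehicle control cultures reached saturation at 30 °C; 1 = growth at the plate median or of vehicle wells; lower values mean less growth of the strain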
Details: S. cerevisiae deletion strains, growth OD, locus YDR150W, strain NUM1, stronger effect = lower value
Out of some 5,500 compounds screened, about 2,000 (36%) were called active. Another 18% or so got no clear call; they are omitted. The list shows a part of the results.
Hi there, I'd appreciate the recorded normalized growth for every entry that follows.
Answer with the value's number alone.

Lookup: May I ask what normalized growth has been recorded for "CCCCCCCCCCCCSc1nnc(N)s1" ?
Found: 1.01

Lookup: May I ask what normalized growth has been recorded for "O=C(Nc1ccc(Cl)cc1)N1CCN(c2ncccc2C(F)(F)F)CC1" ?
Found: 0.978

Lookup: May I ask what normalized growth has been recorded for Cc1c(OCC(F)(F)F)ccnc1CS(=O)c1nc2ccccc2[nH]1 (configuration not stated) ?
Found: 0.996

Lookup: May I ask what normalized growth has been recorded for "O=C(O)c1cc(O)ccc1O" ?
Found: 0.993

Lookup: May I ask what normalized growth has been recorded for "CC(C)Nc1nc(Cl)nc(NC(C)C)n1" ?
Found: 1

Lookup: May I ask what normalized growth has been recorded for "COc1nc(NC(C)C)nc(NC(C)C)n1" ?
Found: 1.01

Lookup: May I ask what normalized growth has been recorded for C/C=C/CC(C)C(O)C1C(=O)NC(CC)C(=O)N(C)CC(=O)N(C)C(CC(C)C)C(=O)NC(C(C)C)C(=O)N(C)C(CC(C)C)C(=O)NC(C)C(=O)NC(C)C(=O)N(C)C(CC(C)C)C(=O)N(C)C(CC(C)C)C(=O)N(C)C(C(C)C)C(=O)N1C (configuration not stated) ?
Found: 0.996

Lookup: May I ask what normalized growth has been recorded for "C[N+]1(C)C[C@H](O)[C@H](C(=O)[O-])C1" ?
Found: 1.01

Lookup: May I ask what normalized growth has been recorded for "O=[N+]([O-])c1ccc(Oc2c(Cl)cccc2Cl)c(Cl)c1Oc1c(Cl)cccc1Cl" ?
Found: 0.992

Lookup: May I ask what normalized growth has been recorded for O=C(O)C1CC(=O)N(Cc2ccccc2Cl)C1 (configuration not stated) ?
Found: 0.947

Lookup: May I ask what normalized growth has been recorded for "COc1ccccc1N1CCN(C(=O)c2cccs2)CC1" ?
Found: 1.04

Lookup: May I ask what normalized growth has been recorded for "O=[N+]([O-])c1cccnc1Oc1ccc(Cl)cc1" ?
Found: 0.917
